EXPERIMENTAL SYSTEM: HLA-A*69:01
ASSAY METHOD TEXT: IEDB peptide-MHC binding, purified MHC/direct/fluorescence; filed as Kd, often an IC50 or EC50 that approximates it; bounds were set here for any values at or beyond the usual limits of such assays
ASSAY CONTEXT: source organism: Vibrio parahaemolyticus
pKd: −log10 of the molar value.
METRIC NAME: pKd

Measured pKd, VMETENALF : ≤ 4.70

Here is the next item to consider.
Measured pKd, NSDPEFNVL : ≤ 4.70

* * *

The following sequences are shown together with reported Kd values.
EXPERIMENTAL SYSTEM: HLA-A*24:02
ASSAY METHOD TEXT: IEDB peptide-MHC binding, purified MHC/competitive/radioactivity; filed as Kd, often an IC50 or EC50 that approximates it; bounds were set here for any values at or beyond the usual limits of such assays
ASSAY CONTEXT: source organism: Lassa virus Josiah

Measured Kd, YCNYSKYWYL : 4.44 µM

Here is the next item to consider.
Measured Kd, KCWLVSNGSY : ≥ 70.3 µM

* * *

EXPERIMENTAL SYSTEM: HLA-A*03:01
ASSAY METHOD TEXT: IEDB peptide-MHC binding, purified MHC/direct/fluorescence; filed as Kd, often an IC50 or EC50 that approximates it; bounds were set here for any values at or beyond the usual limits of such assays
ASSAY CONTEXT: source organism: Shewanella violacea
METRIC NAME: Kd

Lab entry: HLA-A*03:01 assay, sequence ETKGKRRLL , Kd = ≥ 20 µM

* * *

EXPERIMENTAL SYSTEM: HLA-A*03:01
ASSAY METHOD TEXT: IEDB peptide-MHC binding, purified MHC/direct/fluorescence; filed as Kd, often an IC50 or EC50 that approximates it; bounds were set here for any values at or beyond the usual limits of such assays
ASSAY CONTEXT: source organism: SARS-CoV1
METRIC NAME: pKd
# log scale: pKd equals minus log10 of the concentration in mol/L

Measured pKd, KSYEHQTPF : 7.05

* * *

EXPERIMENTAL SYSTEM: HLA-A*31:01
ASSAY METHOD TEXT: IEDB peptide-MHC binding, purified MHC/competitive/radioactivity; filed as Kd, often an IC50 or EC50 that approximates it; bounds were set here for any values at or beyond the usual limits of such assays
ASSAY CONTEXT: source organism: Mammarenavirus guanaritoense
The following sequences are shown together with reported Kd values.

Measured Kd, FTVKLGGVFH : 695 nM

Measured Kd, LCCSLDHSK : 811 nM

Measured Kd, CCNWLDRCRH : 1350 nM

Measured Kd, VCEEFFHQK : ≥ 22200 nM

* * *

EXPERIMENTAL SYSTEM: HLA-A*11:01
ASSAY METHOD TEXT: IEDB peptide-MHC binding, purified MHC/competitive/fluorescence; filed as Kd, often an IC50 or EC50 that approximates it; bounds were set here for any values at or beyond the usual limits of such assays
ASSAY CONTEXT: source organism: Influenza A virus (A/goose/Hong Kong/739.2/2002(H5N1))
METRIC NAME: pKd
# log scale: pKd equals minus log10 of the concentration in mol/L

Measured pKd, ASYKIFRIEK : 9.05

* * *

EXPERIMENTAL SYSTEM: HLA-B*15:17
ASSAY METHOD TEXT: IEDB peptide-MHC binding, purified MHC/direct/fluorescence; filed as Kd, often an IC50 or EC50 that approximates it; bounds were set here for any values at or beyond the usual limits of such assays
ASSAY CONTEXT: source organism: Camelpox virus M-96
The following sequences are shown together with reported Kd values.

Measured Kd, NRLKPRDFK : ≥ 20 µM

Here is the next item to consider.
Measured Kd, YERGNIIIF : ≥ 20 µM

* * *

EXPERIMENTAL SYSTEM: HLA-B*27:03
ASSAY METHOD TEXT: IEDB peptide-MHC binding, purified MHC/competitive/fluorescence; filed as Kd, often an IC50 or EC50 that approximates it; bounds were set here for any values at or beyond the usual limits of such assays
ASSAY CONTEXT: source organism: Homo sapiens
pKd: −log10 of the molar value.
METRIC NAME: pKd

Lab entry: HLA-B*27:03 assay, sequence VTDTALAYF , pKd = ≤ 4.70

* * *

EXPERIMENTAL SYSTEM: HLA-A*26:01
ASSAY METHOD TEXT: IEDB peptide-MHC binding, purified MHC/direct/fluorescence; filed as Kd, often an IC50 or EC50 that approximates it; bounds were set here for any values at or beyond the usual limits of such assays
ASSAY CONTEXT: source organism: Influenza A virus (A/Taiwan/2/2006(H1N1))
pKd: −log10 of the molar value.
METRIC NAME: pKd

Measured pKd, ASRGLWDSF : ≤ 4.70

* * *

EXPERIMENTAL SYSTEM: HLA-C*06:02
ASSAY METHOD TEXT: IEDB peptide-MHC binding, purified MHC/direct/fluorescence; filed as Kd, often an IC50 or EC50 that approximates it; bounds were set here for any values at or beyond the usual limits of such assays
ASSAY CONTEXT: source organism: Variola virus
METRIC NAME: Kd (nM)
Write it as a number; the unit nM goes unstated.

Measured Kd, YLMPYSVYI : 7

* * *

EXPERIMENTAL SYSTEM: HLA-B*51:01
ASSAY METHOD TEXT: IEDB peptide-MHC binding, purified MHC/competitive/fluorescence; filed as Kd, often an IC50 or EC50 that approximates it; bounds were set here for any values at or beyond the usual limits of such assays
ASSAY CONTEXT: source organism: Seoul virus 80-39
pKd: −log10 of the molar value.
METRIC NAME: pKd

Lab entry: HLA-B*51:01 assay, sequence LVRDITESL , pKd = ≤ 4.70

* * *

EXPERIMENTAL SYSTEM: HLA-B*15:17
ASSAY METHOD TEXT: IEDB peptide-MHC binding, purified MHC/direct/fluorescence; filed as Kd, often an IC50 or EC50 that approximates it; bounds were set here for any values at or beyond the usual limits of such assays
ASSAY CONTEXT: source organism: Escherichia coli O157:H7
pKd: −log10 of the molar value.
METRIC NAME: pKd

Measured pKd, EQRLIDICV : ≤ 4.70

* * *

EXPERIMENTAL SYSTEM: HLA-A*68:01
ASSAY METHOD TEXT: IEDB peptide-MHC binding, purified MHC/competitive/radioactivity; filed as Kd, often an IC50 or EC50 that approximates it; bounds were set here for any values at or beyond the usual limits of such assays
ASSAY CONTEXT: source organism: Dengue virus 4 Philippines/H241/1956
METRIC NAME: Kd (nM)
Write it as a number; the unit nM goes unstated.

Measured Kd, DTSEVHWNYK : 6.73

* * *

EXPERIMENTAL SYSTEM: HLA-A*03:01
ASSAY METHOD TEXT: IEDB peptide-MHC binding, purified MHC/direct/fluorescence; filed as Kd, often an IC50 or EC50 that approximates it; bounds were set here for any values at or beyond the usual limits of such assays
ASSAY CONTEXT: source organism: Influenza A virus (A/Duck/Shantou/2134/00(H9N2))
pKd: −log10 of the molar value.
METRIC NAME: pKd

Lab entry: HLA-A*03:01 assay, sequence ASRGLWDSF , pKd = ≤ 4.70

* * *

The following sequences are shown together with reported pKd values.
EXPERIMENTAL SYSTEM: HLA-A*26:01
ASSAY METHOD TEXT: IEDB peptide-MHC binding, purified MHC/competitive/fluorescence; filed as Kd, often an IC50 or EC50 that approximates it; bounds were set here for any values at or beyond the usual limits of such assays
ASSAY CONTEXT: source organism: Zaire ebolavirus
pKd: −log10 of the molar value.

Check out these entries, answers already filled in.
Measured pKd, AENCYNLEI : ≤ 4.70

Measured pKd, DRLASTVIY : ≤ 4.70

Here is the next item to consider.
Measured pKd, GIVSSMHYK : ≤ 4.70

* * *

EXPERIMENTAL SYSTEM: HLA-A*03:01
ASSAY METHOD TEXT: IEDB peptide-MHC binding, purified MHC/direct/fluorescence; filed as Kd, often an IC50 or EC50 that approximates it; bounds were set here for any values at or beyond the usual limits of such assays
ASSAY CONTEXT: source organism: Choclo virus
pKd: −log10 of the molar value.
METRIC NAME: pKd

Measured pKd, LPSSSSYSY : ≤ 4.70

* * *

EXPERIMENTAL SYSTEM: HLA-A*68:01
ASSAY METHOD TEXT: IEDB peptide-MHC binding, purified MHC/competitive/radioactivity; filed as Kd, often an IC50 or EC50 that approximates it; bounds were set here for any values at or beyond the usual limits of such assays
ASSAY CONTEXT: source organism: Mammarenavirus machupoense
METRIC NAME: Kd (nM)
Write it as a number; the unit nM goes unstated.

Measured Kd, EWIEFTNFK : 4.52

Measured Kd, LTMQRLLANH : 1610

Sourced from the Immune Epitope Database (IEDB)
